Hey, just so you know, these numbers are from patent US20030148958A1.

# system name: CRF1R; also: reference of the scale not given here
# assay text: cell-based or functional assay
Ends that are not written are not given here.
measure name: CRF1R Emax % (%)
Answers are plain numbers, in %.

Known CRF1R Emax % results, listed for orientation:
> print(dat)
                                     binder  assay.value
1  ZGPPISIDLPFQLLRILIEIEKQEKEKQQAANNALLLAT (C-terminal amide) [SEQ ID NO 358]          100
2  ZGPPISIDLPIILLRKVIEIEKQEKEKQQAANNRLLLDTI (C-terminal amide) [SEQ ID NO 297]         27.2
3  ZGPPISIDLPIYLLRKMIEIEKQEKEKQQAANNALLLDTI (C-terminal amide) [SEQ ID NO 236]           15
4  ZGPPISIDLPFALLRKMIEIEKQEKEKQQAANNRLLLDTI (C-terminal amide) [SEQ ID NO 307]         92.7
5  ZGPPISIDLPQWLLRKMIEIEKQEKEKQQAANNRLLLDTI (C-terminal amide) [SEQ ID NO 213]           76
6  DNPSLSIDLPLLLLRTLLELARTQSQRERAEQNARIFARV-NH2 [SEQ ID NO 340]           96
7  ZGPPISIDLPQILLRKVIEIEKQEKEKQQAANNALLLATI (C-terminal amide) [SEQ ID NO 299]         10.2
8  IVLSLDVPIGLLQILLEKAAAEAEAAAKAAQEQILAHV-NH2 [SEQ ID NO 366]            9

For each entry beneath this line, provide reported CRF1R Emax %.
1. ZGPPISIDLPFQLLRKVIEIEKQEKEKQQAANNAQLLAQI (not fully specified; C-terminal amide) [SEQ ID NO 276]
2. IVLSLDVPIGLLQILLEQEKARAAREQATTNARILARV-NH2 [SEQ ID NO 325]
3. PSLSIDLPLILLRTLLELEKTQSQRERAEQNARIFARV-NH2 [SEQ ID NO 332]
4. ZGPPISIDVPYWLLRKVIEIEKQEKEKQQAANNARLLARI (C-terminal amide) [SEQ ID NO 373]
5. ZGPPISIDLPFQLLRKVIEIEKQEKEKQQAANNAKLLAKI (not fully specified; C-terminal amide) [SEQ ID NO 274]
6. NDDPPISIDLPLILLRNMIEMARIENEREQAGLNAKYLAEV-NH2 [SEQ ID NO 269]
7. ZGPPISIDLPLQLLEKMIEIEKQEKEKQQAANNALLLATI (not fully specified; C-terminal amide) [SEQ ID NO 249]

Output line:
[75.7, 5, 61.3, 9, 80.9, 44.3, 50]

For each entry beneath this line, provide reported CRF1R Emax %.
1. ZGPPISIDLPFQLLRKVIEIEKQEKEKQQAANNANLLANI (not fully specified; C-terminal amide) [SEQ ID NO 275]
2. DNPSLSIDLPLLLLRTLLELEKTQSQRERAEQNAQIFAHV-NH2 [SEQ ID NO 324]
3. ZGPPISIDLPTALLRKMIEIEKQEKEKQQAANNRLLLDTI (C-terminal amide) [SEQ ID NO 301]

Output line:
1: 38.3; 2: 46.6; 3: 84.1

For each entry beneath this line, provide reported CRF1R Emax %.
1. DNPSLSIDLPYYLLRTLLELARTQSQRERAEQNAIIFASV-NH2 [SEQ ID NO 263]
2. ZGPPISIDLPTYLLRKMIEIEKQEKEKQQAANNALLLDTI (C-terminal amide) [SEQ ID NO 232]
3. ZGPPISIDLPYALLRKMIEIEKQEKEKQQAANNRLLLDTI (C-terminal amide) [SEQ ID NO 309]
4. NDDPPISIDLPFQLLRNMIEMARIENEREQAGLNAKYLAEV-NH2 [SEQ ID NO 258]
5. ZGPPISIDLPHALLRKMIEIEKQEKEKQQAANNRLLLDTI (C-terminal amide) [SEQ ID NO 304]
6. IVLSLDVPIGLLQKVIEIEKQEKEKQQATTNARILARV-NH2 [SEQ ID NO 300]

Output line:
[72, 7, 96.3, 23.6, 100, 7.95]
